This collection of values is drawn from paper PMC7105484.

# System Tested: T1, REF6 ZnF1-4 WT (Arabidopsis thaliana, UniProt Q9STM3 1223-1360)
# T1 sequence: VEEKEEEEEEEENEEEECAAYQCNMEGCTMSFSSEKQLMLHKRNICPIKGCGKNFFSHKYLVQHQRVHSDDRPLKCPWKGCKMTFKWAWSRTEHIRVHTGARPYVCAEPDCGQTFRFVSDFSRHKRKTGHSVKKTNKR
# Protocol Text: MST; MST: 20 mM HEPES pH 7.3, 150 mM NaCl, 0.2 mM TCEP, 0.5% CA-630, 25 C; EMSA: 30 uM protein, 10 uM dsDNA, 20 mM Tris pH 8.0, 100 mM NaCl, 2.5 mM MgCl2, 0.1% CA-630, 10% glycerol, 1 uM ZnSO4, 1 mM DTT, 4 C
# Protocol Conditions: protein: recombinant; tags: His6-MBP or GST tag, TEV-cleavable (cleaved when necessary); label: FAM in MST; none in crystal and EMSA; 5' overhang 1 nt on both strands, 15 bp
Reported Endpoint: pKd
Note: pKd values are expressed as the negative base-10 logarithm of concentration in M.

[Q] Item NAC004 m5 (dsDNA) DNA 1: CTTTCTCTGTTTTGTC DNA 2: GGACAAAACAGAGAAA : provide pKd
[A] 6.40
